# measurement.target: Hypoxia-inducible factor 1-alpha (Homo sapiens)
# assay.method.text: HIF1A nuclear translocation activators in U2OS – imaging, U2OS GFP-HIF1alpha, high content, dry powder, set 2, orthogonal assay for HIF activator project, dose response (AID 493225)
# condition: U2OS GFP-HIF1alpha nuclear intensity imaging; at 38 µM (top of the series)
observation.type: activation (%)
Reply numerically in %, unit not repeated.

Bench note: what activation did "O=C(Nc1cnc2ccccc2c1)c1cc(-c2ccccc2)on1" show? -3.02

Bench note: what activation did "CN1CCN(C(=O)c2cc(-c3ccccc3)on2)CC1" show? -2.52

Bench note: what activation did "Cn1c(-c2ccccc2)cnc1NC(=O)c1cc(-c2ccccc2)on1" show? 12.3

Bench note: what activation did "Cc1ccccc1CNC(=O)c1cc(-c2ccccc2)on1" show? 3.19

----------
# measurement.target: Hypoxia-inducible factor 1-alpha (Homo sapiens) (UniProt Q16665)
# Sequence (Q16665 whole entry, looked up): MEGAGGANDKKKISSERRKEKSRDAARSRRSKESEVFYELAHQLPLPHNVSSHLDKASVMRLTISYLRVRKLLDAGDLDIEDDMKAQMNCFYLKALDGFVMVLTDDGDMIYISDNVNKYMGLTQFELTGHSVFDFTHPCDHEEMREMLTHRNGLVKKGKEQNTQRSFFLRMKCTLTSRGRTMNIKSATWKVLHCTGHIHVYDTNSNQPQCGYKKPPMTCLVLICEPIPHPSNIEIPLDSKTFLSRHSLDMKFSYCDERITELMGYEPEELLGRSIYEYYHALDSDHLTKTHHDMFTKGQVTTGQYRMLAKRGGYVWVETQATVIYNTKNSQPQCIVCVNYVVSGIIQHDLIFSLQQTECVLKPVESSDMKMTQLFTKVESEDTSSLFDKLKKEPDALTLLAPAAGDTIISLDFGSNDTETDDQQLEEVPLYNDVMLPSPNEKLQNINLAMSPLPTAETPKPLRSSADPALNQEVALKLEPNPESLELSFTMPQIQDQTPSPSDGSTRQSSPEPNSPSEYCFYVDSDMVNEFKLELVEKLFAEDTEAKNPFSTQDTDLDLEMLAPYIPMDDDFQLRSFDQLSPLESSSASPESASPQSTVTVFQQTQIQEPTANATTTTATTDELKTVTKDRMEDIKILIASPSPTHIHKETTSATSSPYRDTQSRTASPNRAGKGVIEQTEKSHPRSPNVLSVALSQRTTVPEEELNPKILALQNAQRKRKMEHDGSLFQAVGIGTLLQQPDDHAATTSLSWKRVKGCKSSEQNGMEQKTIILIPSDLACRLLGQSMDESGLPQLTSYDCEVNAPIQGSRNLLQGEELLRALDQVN
# assay.method.text: HIF1A nuclear translocation activators in U2OS – imaging, U2OS GFP-HIF1alpha, high content, dry powder, set 2, orthogonal assay for HIF activator project, dose response (AID 493225)
# condition: U2OS GFP-HIF1alpha nuclear intensity imaging; at 38 µM (top of the series)
Give measured activation for each item. Keep answers brief.
Reply numerically in %, unit not repeated.

Bench note: what activation did "O=C(Nc1ncc(-c2ccccc2)o1)c1cc(-c2ccccc2)on1" show? -4.43

Bench note: what activation did "O=C(NCC1CCCCC1)c1cc(-c2ccccc2)on1" show? 8.55

Bench note: what activation did "O=C(Nc1cn2ccccc2n1)c1cc(-c2ccccc2)on1" show? 9.51

Bench note: what activation did "O=C(c1cc(-c2ccccc2)on1)N1CCC(N2CCOCC2)CC1" show? -1.88

Bench note: what activation did "O=C(Nc1ncc2ccccc2n1)c1cc(-c2ccccc2)on1" show? 10.3

Bench note: what activation did "O=C(c1cc(-c2ccccc2)on1)N1CCN(c2ccncc2)CC1" show? -1.92

Bench note: what activation did "Cn1c(NC(=O)c2cc(-c3ccccc3)on2)nc2ccccc21" show? -4.79

Bench note: what activation did "O=C(c1cc(-c2ccccc2)on1)N1CCC(CO)CC1" show? -3.23

Bench note: what activation did "O=C(c1cc(-c2ccccc2)on1)N1CCC(N2CCCC2)CC1" show? 3.26

Bench note: what activation did "Cc1cccc(CNC(=O)c2cc(-c3ccccc3)on2)c1" show? 9.64

Bench note: what activation did "Cc1cccc(NC(=O)c2cc(-c3ccccc3)on2)n1" show? 0.577

Bench note: what activation did "O=C(Nc1ccc2ccccc2n1)c1cc(-c2ccccc2)on1" show? -3.66

----------
# measurement.target: Hypoxia-inducible factor 1-alpha (Homo sapiens) (UniProt Q16665)
# assay.method.text: HIF1A nuclear translocation activators in U2OS – imaging, U2OS GFP-HIF1alpha, high content, dry powder, set 2, orthogonal assay for HIF activator project, dose response (AID 493225)
# condition: U2OS GFP-HIF1alpha nuclear intensity imaging
Active and inactive are the calls of the source.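 Rule for the calls: active = fitted curve reaching 40% activation, where positive control equals 100, at or below the top valid dose; inconclusive = flat curve between 30 and 70% activation, or a poor fit; inactive = the rest, including activity in the opposite direction.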
Respond using exactly one of the listed classes: active, inactive

State the result this test recorded for "C=CCNc1nc(-c2ccccn2)nnc1-c1ccccc1" . active

State the result this test recorded for "Cn1c(-c2ccccc2)cnc1Nc1nc(-c2ccccn2)nnc1-c1ccccc1" . inactive

State the result this test recorded for "c1ccc(-c2nnc(-c3ccccn3)nc2Nc2cnc3ccccc3n2)cc1" . active

State the result this test recorded for "c1ccc(-c2ccc(CNc3nc(-c4ccccn4)nnc3-c3ccccc3)cc2)cc1" . active

State the result this test recorded for "c1ccc(-c2nnc(-c3ccccn3)nc2N2CCC(N3CCOCC3)CC2)cc1" . active

State the result this test recorded for "c1ccc(-c2csc(Nc3nc(-c4ccccn4)nnc3-c3ccccc3)n2)cc1" . active

State the result this test recorded for "O=C(NCCCn1ccnc1)c1cc(-c2ccccc2)on1" . active

State the result this test recorded for "c1ccc(-c2nnc(-c3ccccn3)nc2NCC2CCCCC2)cc1" . active

State the result this test recorded for "Cc1ccc(CNc2nc(-c3ccccn3)nnc2-c2ccccc2)cc1C" . active

State the result this test recorded for "O=C(NCCN1CCCCC1)c1cc(-c2ccccc2)on1" . inactive

State the result this test recorded for CC(Nc1nc(-c2ccccn2)nnc1-c1ccccc1)c1ccccc1 (stereo unspecified) . active
